Tested on: RAN translation of (G4C2)66-No ATG-GFP in HEK293T cells
TEST_PROTOCOL: Cell-based assay of RAN translation inhibition (GFP/mCherry reporter)
CONDITIONS_USED: Homo sapiens, HEK-293T, 24 h, Table D; HEK293T, 24 h treatment; read-out: RANT IC25
Please enter true (1) where IC25 is greater than or equal to 800 nM, and false (0) where it is lower.

1) Cc1c2ccncc2cc2c3cc(OCCCN(C)C)ccc3n(C)c12 [Compound 6] : true (1)
2) Cc1c2ccncc2cc2c3ccc(OCCN(C)C)cc3n(C)c12 [Example 51] : true (1)
3) Cc1c2ccncc2cc2c3cc(C(N)=O)ccc3n(C)c12 [Example 69] : true (1)
4) COc1ccc2c(c1)c1cc3c(C(=O)NCCN(C)C)nccc3c(C)c1n2C [Example 28] : false (0)
5) Cc1c2ccncc2cc2c3cc(OCC(=O)NCCN4CCOCC4)ccc3n(C)c12 [Example 42] : true (1)
6) CNC(=O)c1ccc2c(c1)c1cc3cnccc3c(C)c1n2C [Example 70] : true (1)
7) COc1ccc2c(c1)c1cc3c(C(=O)N[C@H](C)CN(C)C)nccc3c(C)c1n2C [Example 25] : false (0)
8) COc1ccc2c(c1)c1cc3c(C4CCCO4)nccc3c(C)c1n2C (stereo not drawn) [Example 80b] : true (1)
9) CNCCNC(=O)c1ccc2c(c1)c1cc3cnccc3c(C)c1n2C [Example 73] : true (1)
